Target: UniProt P35968
Assay: Intrinsic potency against VEGF stimulated KDR phosphorylation
Type: functional
recorded.metric: IC50 (nM)

// worked examples, IC50 included
CS(=O)(=O)N1CCN(Cc2ccc(-c3ccn4c(-c5ccccc5)cnc4c3)cc2)CC1: 110
CNC(=O)N1CCN(Cc2ccc(-c3ccn4c(-c5ccccc5)cnc4c3)cc2)CC1: 410

a: CC(=O)N1CCN(Cc2ccc(-c3ccn4c(-c5ccccc5)cnc4c3)cc2)CC1
b: O=c1cc(-c2ccn3c(-c4ccccc4)cnc3c2)ccn1CCCN1CCCCC1
Please indicate which entry, a or b , has the lower recorded IC50 value. Kindly state the label of the option you pick.
b

====

Molecular target: Vascular endothelial growth factor receptor 2 (Homo sapiens)
Sequence (P35968 whole entry): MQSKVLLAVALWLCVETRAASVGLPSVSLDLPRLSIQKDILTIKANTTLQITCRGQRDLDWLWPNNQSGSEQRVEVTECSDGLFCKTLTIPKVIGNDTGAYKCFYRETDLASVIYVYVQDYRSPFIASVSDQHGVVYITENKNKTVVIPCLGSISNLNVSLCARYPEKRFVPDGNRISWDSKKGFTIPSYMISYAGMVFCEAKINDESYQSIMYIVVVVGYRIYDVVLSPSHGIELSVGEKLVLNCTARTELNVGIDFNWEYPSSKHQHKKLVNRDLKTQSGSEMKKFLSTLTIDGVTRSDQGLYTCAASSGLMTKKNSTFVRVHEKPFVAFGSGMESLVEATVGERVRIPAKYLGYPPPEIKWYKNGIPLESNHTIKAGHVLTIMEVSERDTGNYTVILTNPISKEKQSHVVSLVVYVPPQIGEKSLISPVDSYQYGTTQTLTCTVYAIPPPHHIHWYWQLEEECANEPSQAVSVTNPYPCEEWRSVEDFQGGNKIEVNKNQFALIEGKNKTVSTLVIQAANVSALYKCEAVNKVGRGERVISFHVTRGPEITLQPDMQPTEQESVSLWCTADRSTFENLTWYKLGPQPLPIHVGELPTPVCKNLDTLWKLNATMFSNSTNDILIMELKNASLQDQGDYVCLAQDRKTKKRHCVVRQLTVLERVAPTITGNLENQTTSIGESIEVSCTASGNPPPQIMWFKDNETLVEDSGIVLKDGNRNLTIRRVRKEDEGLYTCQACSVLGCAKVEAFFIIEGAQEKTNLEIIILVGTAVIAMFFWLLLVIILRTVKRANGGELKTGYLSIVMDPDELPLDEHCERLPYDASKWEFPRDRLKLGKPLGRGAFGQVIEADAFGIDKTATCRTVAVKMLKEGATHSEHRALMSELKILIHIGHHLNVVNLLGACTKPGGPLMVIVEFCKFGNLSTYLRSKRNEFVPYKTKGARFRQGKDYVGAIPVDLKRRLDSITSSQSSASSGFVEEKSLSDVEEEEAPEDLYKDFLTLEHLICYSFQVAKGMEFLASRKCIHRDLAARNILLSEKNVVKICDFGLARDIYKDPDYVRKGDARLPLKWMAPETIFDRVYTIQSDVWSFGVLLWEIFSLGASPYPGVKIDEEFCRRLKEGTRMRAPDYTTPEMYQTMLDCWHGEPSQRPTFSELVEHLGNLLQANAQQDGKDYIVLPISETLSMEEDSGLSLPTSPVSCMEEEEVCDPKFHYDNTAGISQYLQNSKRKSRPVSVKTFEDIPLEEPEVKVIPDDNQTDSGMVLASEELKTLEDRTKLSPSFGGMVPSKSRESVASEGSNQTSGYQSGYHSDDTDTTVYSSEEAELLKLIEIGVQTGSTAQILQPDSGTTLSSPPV
Assay: Inhibition of phosphorylation of poly-Glu/Tyr (4:1) peptide substrate by VEGF-receptor 2 (KDR) kinase
recorded.metric: IC50 (nM)
// units = nM; emit number, no label

Supply IC50 value. Item: COc1ccc(-c2cnc3cc(-c4ccccc4)ccn23)cn1
2840
